PPARγ activation ability by entry:
# subject of test: GAL4-PPARγ chimeric receptor (human PPARγ ligand binding site) (Homo sapiens, UniProt P37231)
# Construct: a GAL4-PPARγ chimeric receptor containing amino acid Nos. 1-147 of yeast transcription factor GAL4 on the amino terminal and Nos. 175-475; expressed in transfected cells; host or cells: HEK293 (plasmid pM-PPARγ co-transfected with reporter pFR-Luc)
# Sequence (P37231 with tags, fused parts or gaps): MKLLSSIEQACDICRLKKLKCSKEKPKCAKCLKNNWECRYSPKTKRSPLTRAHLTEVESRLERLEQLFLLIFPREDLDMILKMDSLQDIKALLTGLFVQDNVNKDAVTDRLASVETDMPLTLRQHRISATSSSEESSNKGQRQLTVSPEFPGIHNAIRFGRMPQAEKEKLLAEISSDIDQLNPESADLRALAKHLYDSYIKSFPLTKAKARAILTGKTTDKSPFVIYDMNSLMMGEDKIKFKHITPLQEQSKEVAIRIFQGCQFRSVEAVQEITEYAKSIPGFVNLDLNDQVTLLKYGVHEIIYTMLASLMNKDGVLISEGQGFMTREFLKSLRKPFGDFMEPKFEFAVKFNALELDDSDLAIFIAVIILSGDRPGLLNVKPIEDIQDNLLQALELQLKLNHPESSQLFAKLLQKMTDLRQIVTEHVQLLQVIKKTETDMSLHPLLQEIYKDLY
# experimental details: Determination of PPARγ activation ability (GAL4-PPARγ luciferase reporter assay in HEK293 cells)
# Format: cell-based
# study conditions: each compound 1 μM; amount of luminescence relative to control; value greater than 1 = activation ability
Please give only the number in your answer, with no unit.

> print(dat)
                                   compound  readout.value
1  CC(C)(C)N.CC=CC=CC(=O)N1Cc2cc(OCCc3nc(/C=C/C4CCCCC4)oc3C)ccc2C[C@H]1C(=O)O (stereo in doubt) [Reference Example 40]            5.4

Here is the next item to consider.
Please fill in: PPARγ activation ability reported for CC(C)(C)N.CC=CC=CC(=O)N1Cc2cc(OCCc3nc(/C=C/CCC(C)C)oc3C)ccc2C[C@H]1C(=O)O (stereo in doubt) [Reference Example 30] = 6.2

* * *

# subject of test: GAL4-PPARγ chimeric receptor (human PPARγ ligand binding site) (Homo sapiens, UniProt P37231)
# Construct: a GAL4-PPARγ chimeric receptor containing amino acid Nos. 1-147 of yeast transcription factor GAL4 on the amino terminal and Nos. 175-475; expressed in transfected cells; host or cells: HEK293 (plasmid pM-PPARγ co-transfected with reporter pFR-Luc)
# experimental details: Determination of PPARγ activation ability (GAL4-PPARγ luciferase reporter assay in HEK293 cells)
# Assay type: cell-based
# study conditions: each compound 1 μM; amount of luminescence relative to control; value greater than 1 = activation ability
As shown below, each of these molecules has a reported PPARγ activation ability value.

> print(dat)
                                   molecule             readout.label  readout.value
1  CC(C)(C)N.CC=CC=CC(=O)N1Cc2cc(OCCc3nc(/C=C/CCCF)oc3C)ccc2C[C@H]1C(=O)O (stereo in doubt) [Reference Example 66]  PPARγ activation ability            3.0

PPARγ activation ability recorded for this molecule, CC(C)(C)N.CC=CC=CC(=O)N1Cc2cc(OCCc3nc(/C(C)=C/CCC)oc3C)ccc2C[C@H]1C(=O)O (stereo in doubt) [Reference Example 33] , is 6.5

What the record says about CC(C)(C)N.CCCCC=CC(=O)N1Cc2cc(OCCc3nc(/C=C/CC(C)C)oc3C)ccc2C[C@H]1C(=O)O (stereo in doubt) [Reference Example 24] : PPARγ activation ability is 9.4

* * *

# subject of test: GAL4-PPARγ chimeric receptor (human PPARγ ligand binding site) (Homo sapiens)
# Construct: a GAL4-PPARγ chimeric receptor containing amino acid Nos. 1-147 of yeast transcription factor GAL4 on the amino terminal and Nos. 175-475; expressed in transfected cells; host or cells: HEK293 (plasmid pM-PPARγ co-transfected with reporter pFR-Luc)
# experimental details: Determination of PPARγ activation ability (GAL4-PPARγ luciferase reporter assay in HEK293 cells)
# Format: cell-based
# study conditions: each compound 1 μM; amount of luminescence relative to control; value greater than 1 = activation ability
readout label: PPARγ activation ability
Please give the numeric answer without any surrounding text.

> print(dat)
                                   molecule             readout.label  readout.value
1  CC(C)(C)N.CC=CC=CC(=O)N1Cc2cc(OCCc3coc(/C(C)=C/CCC)n3)ccc2C[C@H]1C(=O)O (stereo in doubt) [Reference Example 83]  PPARγ activation ability            3.1

Lab book: PPARγ activation ability of CC(C)(C)N.CC=CC=CC(=O)N1Cc2cc(OCCc3nc(/C=C/CCCC)oc3C)ccc2C[C@H]1C(=O)O (stereo in doubt) [Reference Example 27] noted as 5.9

CC(C)(C)N.CC=CC=CC(=O)N1Cc2cc(OCCc3nc(/C=C/C4CCCC4)oc3C)ccc2C[C@H]1C(=O)O (stereo in doubt) [Reference Example 22] has a reported PPARγ activation ability of 5.1
